system: MDR1 (human); test: in vitro; conditions: dog, MDCK-MDR1
Description: Efflux ratio of permeability from basolateral to apical over apical to basolateral side of MDCK2 cells over expressing human MDR1
Observable: efflux ratio

# count of solved cases: 2
Cc1ccc(-c2ccc3c(c2)C[C@@H](NS(=O)(=O)C(C)C)C3)cn1 = 0.9
CC(C)S(=O)(=O)NC1Cc2ccc(-c3cccc(NS(C)(=O)=O)c3)cc2C1 (centres undefined) = 5.8

1: CC(C)S(=O)(=O)N[C@H]1Cc2ccc(-c3ccc(F)cn3)cc2C1
2: CC(C)S(=O)(=O)NC1Cc2ccc(-c3cccc(N(C)S(C)(=O)=O)c3)cc2C1 (centres undefined)
Request: Would you kindly point out which of 1 and 2 has the smaller efflux ratio figure? Give the label of your selection.
Result: 1
(1: 1.1, 2: 3.2)
